Target: His6-AspH315–758 (human aspartate/asparagine-β-hydroxylase, AspH) (Homo sapiens)
Construct: N-Terminally His6-tagged human AspH315–758 (His6-AspH315–758) was produced in E. coli BL21 (DE3) cells; made in house; host or cells: E. coli BL21 (DE3), pET-28a(+) vector
Sequence (Q12797 315-758): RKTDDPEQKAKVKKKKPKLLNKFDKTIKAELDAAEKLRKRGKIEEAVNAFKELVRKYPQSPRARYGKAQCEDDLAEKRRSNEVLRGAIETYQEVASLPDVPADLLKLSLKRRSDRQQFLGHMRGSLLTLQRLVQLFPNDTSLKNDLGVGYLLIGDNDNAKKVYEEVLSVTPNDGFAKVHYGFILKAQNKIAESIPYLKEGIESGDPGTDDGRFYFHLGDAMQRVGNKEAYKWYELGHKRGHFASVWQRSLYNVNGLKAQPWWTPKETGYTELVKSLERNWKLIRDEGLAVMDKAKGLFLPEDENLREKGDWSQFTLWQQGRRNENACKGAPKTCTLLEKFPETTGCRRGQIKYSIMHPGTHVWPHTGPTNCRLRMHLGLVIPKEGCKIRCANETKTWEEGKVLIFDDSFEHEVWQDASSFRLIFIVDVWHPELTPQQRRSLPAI
Assay: SPE-MS AspH inhibition assay (LOPAC screen at fixed 20 μM and IC50 dose-response), hydroxylation of cyclic peptide hFX-CP101–119
Assay type: biochemical
Conditions: LOPAC compound at fixed 20 uM; plate 1, normalised to DMSO and 2,4-PDCA controls
Structures can show the parent of a compound that is named as a salt.
Measured Metric: Plate 1 (% inhibition) (%)
Lab book: enter the figure in %, no units written.

Here are 4 molecules together with their reported answers.
>>> endpoint_result("CCOC(=O)C(C)(C)Oc1ccc(Cl)cc1 [Clofibrate]")
-11.71
>>> endpoint_result("COc1cc2nc(N(C)CCCNC(=O)C3CCCO3)nc(N)c2cc1OC (centres unmarked) [Alfuzosin hydrochloride]")
-12.38
>>> endpoint_result("Br.CN1Cc2sccc2C(c2ccc(O)c(O)c2)C1 (centres unmarked) [SKF-89145 hydrobromide]")
78.75
>>> endpoint_result("COc1ccccc1N1CCN(CCCCNC(=O)c2ccc3ccccc3c2)CC1 [BP 897]")
-9.00

The record that follows has no Plate 1 (% inhibition) shown yet.
Data request: Name the reported Plate 1 (% inhibition) value associated with the molecule Cn1c(=O)c2[nH]c(-c3ccc(S(=O)(=O)O)cc3)nc2n(C)c1=O [8-(p-Sulfophenyl)theophylline]
Data returned: 51.62
